system: ABC-1; assay: relative viability (nuclei count vs DMSO), 5 days (fraction); higher = more cells survive; conditions: first compound 50 µM
Catalogue of relative viability readings, one per entry.
READOUT NAME: relative viability

MOLECULE: O=C(O)CCCCC(CCSCc1ccccc1)SCc1ccccc1 (configuration not stated) [CPI-613] + O=C(c1cc(Cc2n[nH]c(=O)c3ccccc23)ccc1F)N1CCN(C(=O)C2CC2)CC1 [Olaparib] (partner 8 µM)
VAL: 0.957
//
MOLECULE: O=C(O)CCCCC(CCSCc1ccccc1)SCc1ccccc1 (configuration not stated) [CPI-613] + C[C@@H](Oc1cc(-c2cnn(C3CCNCC3)c2)cnc1N)c1c(Cl)ccc(F)c1Cl [Crizotinib] (partner 1 µM)
VAL: 0.875
//
MOLECULE: O=C(O)CCCCC(CCSCc1ccccc1)SCc1ccccc1 (configuration not stated) [CPI-613] + Cc1cc(Nc2cc(N3CCN(C)CC3)nc(Sc3ccc(NC(=O)C4CC4)cc3)n2)n[nH]1 [Tozasertib] (partner 0.1 µM)
VAL: 0.189
//
MOLECULE: O=C(O)CCCCC(CCSCc1ccccc1)SCc1ccccc1 (configuration not stated) [CPI-613] + CC(=O)c1c(C)c2cnc(Nc3ccc(N4CCNCC4)cn3)nc2n(C2CCCC2)c1=O [Palbociclib] (partner 0.5 µM)
VAL: 0.639
//
MOLECULE: O=C(O)CCCCC(CCSCc1ccccc1)SCc1ccccc1 (configuration not stated) [CPI-613] + Nc1ncn([C@H]2C[C@H](O)[C@@H](CO)O2)c(=O)n1 [Decitabine] (partner 2 µM)
VAL: 1.37
//
MOLECULE: O=C(O)CCCCC(CCSCc1ccccc1)SCc1ccccc1 (configuration not stated) [CPI-613] + C[C@]1(O)C[C@@H](c2nc(-c3ccc4ccc(-c5ccccc5)nc4c3)c3c(N)nccn32)C1 [Linsitinib] (partner 1 µM)
VAL: 0.815
//
MOLECULE: O=C(O)CCCCC(CCSCc1ccccc1)SCc1ccccc1 (configuration not stated) [CPI-613] + CS(=O)(=O)CCNCc1ccc(-c2ccc3ncnc(Nc4ccc(OCc5cccc(F)c5)c(Cl)c4)c3c2)o1 [Lapatinib] (partner 2 µM)
VAL: 1.33

----------
tested on: SK-MES-1; assay: relative viability (nuclei count vs DMSO), 5 days (fraction); higher = more cells survive; conditions: first compound 0.01581 µM
Catalogue of relative viability readings, one per entry.

COMPOUND: COc1cc2nccc(Oc3ccc(NC(=O)Nc4cc(C)on4)c(Cl)c3)c2cc1OC [Tivozanib] + Nc1ncn([C@H]2C[C@H](O)[C@@H](CO)O2)c(=O)n1 [Decitabine] (partner 2 µM)
relative viability: 0.363

COMPOUND: Nc1ccn([C@@H]2O[C@H](CO)[C@@H](O)[C@@H]2O)c(=O)n1 [Cytarabine] + Cc1nc(Nc2ncc(C(=O)Nc3c(C)cccc3Cl)s2)cc(N2CCN(CCO)CC2)n1 [Dasatinib] (partner 0.075 µM)
relative viability: 0.174

COMPOUND: COc1cc2nccc(Oc3ccc(NC(=O)Nc4cc(C)on4)c(Cl)c3)c2cc1OC [Tivozanib] + N=C(N)NC(=N)NCCc1ccccc1 [Phenformin] (partner 250 µM)
relative viability: 0.676

COMPOUND: COc1cc2nccc(Oc3ccc(NC(=O)Nc4cc(C)on4)c(Cl)c3)c2cc1OC [Tivozanib] + CCNC(=O)c1noc(-c2cc(C(C)C)c(O)cc2O)c1-c1ccc(CN2CCOCC2)cc1 [Luminespib] (partner 0.01 µM)
relative viability: 0.832

----------
system: EBC-1; experiment: relative viability (nuclei count vs DMSO), 5 days (fraction); higher = more cells survive; settings: first compound 0.08 µM
Catalogue of relative viability readings, one per entry.

MOLECULE: O=c1[nH]c2ccccc2n1C1CCN(CCCC(c2ccc(F)cc2)c2ccc(F)cc2)CC1 [Pimozide] + O=C(c1cc(Cc2n[nH]c(=O)c3ccccc23)ccc1F)N1CCN(C(=O)C2CC2)CC1 [Olaparib] (partner 8 µM)
relative viability: 0.651
//
MOLECULE: O=c1[nH]c2ccccc2n1C1CCN(CCCC(c2ccc(F)cc2)c2ccc(F)cc2)CC1 [Pimozide] + Cc1nc(NC(=O)N2CCC[C@H]2C(N)=O)sc1-c1ccnc(C(C)(C)C(F)(F)F)c1 [Alpelisib] (partner 2 µM)
relative viability: 0.895
//
MOLECULE: Cc1cnc(-c2cnc(NCCNc3ccc(C#N)cn3)nc2-c2ccc(Cl)cc2Cl)[nH]1 + CC1(C)CCC(c2ccc(Cl)cc2)=C(CN2CCN(c3ccc(C(=O)NS(=O)(=O)c4ccc(N[C@H](CCN5CCOCC5)CSc5ccccc5)c(S(=O)(=O)C(F)(F)F)c4)cc3)CC2)C1 [Navitoclax] (partner 0.5 µM)
relative viability: 0.399
//
MOLECULE: O=c1[nH]c2ccccc2n1C1CCN(CCCC(c2ccc(F)cc2)c2ccc(F)cc2)CC1 [Pimozide] + CS(=O)(=O)N1CCN(Cc2cc3nc(-c4cccc5[nH]ncc45)nc(N4CCOCC4)c3s2)CC1 [Pictilisib] (partner 1 µM)
relative viability: 0.393

----------
Catalogue of relative viability readings, one per entry.
tested on: CAL-12T; test: relative viability (nuclei count vs DMSO), 5 days (fraction); higher = more cells survive; conditions: first compound 0.01581 µM

COMPOUND: COc1cc2nccc(Oc3ccc(NC(=O)Nc4cc(C)on4)c(Cl)c3)c2cc1OC [Tivozanib] + CCNC(=O)c1noc(-c2cc(C(C)C)c(O)cc2O)c1-c1ccc(CN2CCOCC2)cc1 [Luminespib] (partner 0.01 µM)
relative viability: 0.36

COMPOUND: Nc1ccn([C@@H]2O[C@H](CO)[C@@H](O)[C@@H]2O)c(=O)n1 [Cytarabine] + O=C(c1cc(Cc2n[nH]c(=O)c3ccccc23)ccc1F)N1CCN(C(=O)C2CC2)CC1 [Olaparib] (partner 8 µM)
relative viability: 0.68

----------
Catalogue of relative viability readings, one per entry.
tested on: NCI-H441; assay: relative viability (nuclei count vs DMSO), 5 days (fraction); higher = more cells survive; details: first compound 0.08 µM
READOUT NAME: relative viability

COMPOUND: Cc1cnc(-c2cnc(NCCNc3ccc(C#N)cn3)nc2-c2ccc(Cl)cc2Cl)[nH]1 + C[C@]1(O)C[C@@H](c2nc(-c3ccc4ccc(-c5ccccc5)nc4c3)c3c(N)nccn32)C1 [Linsitinib] (partner 1 µM)
VAL: 0.662
//
COMPOUND: Cc1cnc(-c2cnc(NCCNc3ccc(C#N)cn3)nc2-c2ccc(Cl)cc2Cl)[nH]1 + CS(=O)(=O)N1CCN(Cc2cc3nc(-c4cccc5[nH]ncc45)nc(N4CCOCC4)c3s2)CC1 [Pictilisib] (partner 1 µM)
VAL: 0.486
//
COMPOUND: O=c1[nH]c2ccccc2n1C1CCN(CCCC(c2ccc(F)cc2)c2ccc(F)cc2)CC1 [Pimozide] + COc1cc2c(Oc3ccc(NC(=O)C4(C(=O)Nc5ccc(F)cc5)CC4)cc3F)ccnc2cc1OCCCN1CCOCC1 [Foretinib] (partner 0.25 µM)
VAL: 1.09
//
COMPOUND: O=c1[nH]c2ccccc2n1C1CCN(CCCC(c2ccc(F)cc2)c2ccc(F)cc2)CC1 [Pimozide] + Cc1nc(Nc2ncc(C(=O)Nc3c(C)cccc3Cl)s2)cc(N2CCN(CCO)CC2)n1 [Dasatinib] (partner 0.075 µM)
VAL: 0.86

----------
tested on: HCC-15; test: relative viability (nuclei count vs DMSO), 5 days (fraction); higher = more cells survive; conditions: first compound 5 µM
Catalogue of relative viability readings, one per entry.
READOUT NAME: relative viability

COMPOUND: O=C(O)CCCCC(CCSCc1ccccc1)SCc1ccccc1 (stereo not given) [CPI-613] + CC(C)C[C@H](NC(=O)[C@H](Cc1ccccc1)NC(=O)c1cnccn1)B(O)O [Bortezomib] (partner 0.002 µM)
READOUT NAME: relative viability
VAL: 0.938
--
COMPOUND: O=C(O)CCCCC(CCSCc1ccccc1)SCc1ccccc1 (stereo not given) [CPI-613] + CC(=O)Nc1cccc(-n2c(=O)n(C3CC3)c(=O)c3c(Nc4ccc(I)cc4F)n(C)c(=O)c(C)c32)c1 [Trametinib] (partner 0.02 µM)
READOUT NAME: relative viability
VAL: 0.387
--
COMPOUND: O=C(O)CCCCC(CCSCc1ccccc1)SCc1ccccc1 (stereo not given) [CPI-613] + C[C@@H](Oc1cc(-c2cnn(C3CCNCC3)c2)cnc1N)c1c(Cl)ccc(F)c1Cl [Crizotinib] (partner 1 µM)
READOUT NAME: relative viability
VAL: 0.772
--
COMPOUND: O=C(O)CCCCC(CCSCc1ccccc1)SCc1ccccc1 (stereo not given) [CPI-613] + CS(=O)(=O)CCNCc1ccc(-c2ccc3ncnc(Nc4ccc(OCc5cccc(F)c5)c(Cl)c4)c3c2)o1 [Lapatinib] (partner 2 µM)
READOUT NAME: relative viability
VAL: 0.785
--
COMPOUND: O=C(O)CCCCC(CCSCc1ccccc1)SCc1ccccc1 (stereo not given) [CPI-613] + CS(=O)(=O)N1CCN(Cc2cc3nc(-c4cccc5[nH]ncc45)nc(N4CCOCC4)c3s2)CC1 [Pictilisib] (partner 1 µM)
READOUT NAME: relative viability
VAL: 0.604
